Items are presented alongside their recorded z-score.
PROTOCOL SUMMARY: viability profiling in MM1S myeloma cells – cell-based, resazurin fluorescence, basal, 24 h, PK04 Diversity Set, profiling panel (AID 1174);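 note: MM1S multiple myeloma cell line; test concentration not given here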
CONDITIONS: higher = more signal, called active from +8 up or from −8 down
API doc: respond with a numeric literal and nothing else, no unit.

Known results for molecules:
>  <RECORD SMILES>
CCCN1C(=O)[C@@]2(Cc3ccccc31)N=C(c1ccc(OCCCO)cc1)O[C@H]2c1ccccc1

>  <QUANTITATIVE RESULT>
-2

$$$$
>  <RECORD SMILES>
Cc1ccc(S[C@]2(C(=O)O)CC(=O)N(C3CCCCC3)[C@@H]2c2ccc(CO)cc2I)cc1

>  <QUANTITATIVE RESULT>
-0.353

$$$$
>  <RECORD SMILES>
CCOC(=O)C[C@H]1[C@H](OC(=O)c2cc3ccccc3oc2=O)[C@@H](NC(=O)c2ccc3ccccc3n2)c2cc(OCCCO)ccc2N1C(=O)Cc1ccc(OC)cc1

>  <QUANTITATIVE RESULT>
-0.76

$$$$
>  <RECORD SMILES>
COc1ccc([Si](C)(C)[C@@H]2[C@@H](CCO)O[C@]3(C(=O)N(Cc4ccccc4)c4ccc(N5C(=O)c6cccc7cccc5c67)cc43)[C@H]2C)cc1

>  <QUANTITATIVE RESULT>
0.274

$$$$
>  <RECORD SMILES>
CCCC#C[Si](O[C@H](CC)c1cn([C@H](C)c2ccccc2)nn1)(C(C)C)C(C)C

>  <QUANTITATIVE RESULT>
-0.098

$$$$
>  <RECORD SMILES>
C=C(/C(=C/C[C@H](OC(C)=O)c1ccc(CO)o1)c1cnc2ccccc2c1)C(C)C

>  <QUANTITATIVE RESULT>
-0.575

$$$$

Let us move to another entry and its z-score.
Input: Need z-score, item COCCOC(=O)N1C(=O)[C@@]2(c3cc(C#CC4=CCCCC4)ccc31)[C@H](c1ccccc1OCCO)N1[C@H](c3ccccc3)[C@H](c3ccccc3)OC(=O)[C@H]1[C@@H]2C(=O)N1CCN(c2ncccn2)CC1
Output: 0.411

* * *

PROTOCOL SUMMARY: resazurin metabolic signal in A549 cells – cell-based, resazurin fluorescence, 24 h, PK04 Diversity Set, profiling panel (AID 1171); note: test concentration not given here
CONDITIONS: A549 viability, higher = more signal, called active from +8 up or from −8 down
Activity calls are given as the source filed them.
ENDPOINT NAME: z-score

Below: 5 molecules and their reported z-score.
>  <MOLECULE>
C=CC[C@@]1(C(=O)NCCCOC)N=C(c2ccc(OCCCO)cc2)O[C@@H]1c1ccccc1

>  <RESULT>
-0.706 (inactive)

$$$$
>  <MOLECULE>
O=C1NC(=O)C2C1C=CC(C(O)c1ccco1)N2Nc1ccc(Cl)cc1Cl (configuration not stated)

>  <RESULT>
-2.08 (inactive)

$$$$
>  <MOLECULE>
CCOC(=O)C[C@H]1[C@H](OC(=O)c2cc3ccccc3oc2=O)[C@@H](NC(=O)c2ccc3ccccc3n2)c2cc(OCCCO)ccc2N1C(=O)Cc1ccc(OC)cc1

>  <RESULT>
0.711 (inactive)

$$$$
>  <MOLECULE>
CC1CC/C=C\[C@H]2OC34C=CCN(c5ccc(Cl)cc5)C(=O)[C@H]3N(C(C)CO)C(=O)[C@]4(C)C2C(=O)O1 (some centres not stated)

>  <RESULT>
0.0378 (inactive)

$$$$
>  <MOLECULE>
CCCN1C(=O)[C@]2(Cc3ccccc31)N=C(c1ccc(OCCCO)cc1)O[C@@H]2c1ccccc1

>  <RESULT>
-1.6 (inactive)

$$$$

Input: I am curious: what z-score value has been reported for CCOC(=O)C[C@H]1[C@H](OC(=O)c2ccc(C(=O)c3ccccc3)cc2)[C@@H](NC(=O)C2CCCCC2)c2cc(OCCCO)ccc2N1C(=O)c1ccc2ccccc2n1 ?
Output: -0.0397 (inactive)

Input: Another molecule to look at: [N-]=[N+]=Nc1ccccc1C[C@@]1(C(N)=O)N=C(c2ccc(OCCCO)cc2)O[C@@H]1c1ccccc1N=[N+]=[N-]
Output: -0.385 (inactive)
